Entries and their residual activity
# target_under_test: IKBKB (human) (UniProt O14920)
# Sequence (O14920 whole entry, looked up): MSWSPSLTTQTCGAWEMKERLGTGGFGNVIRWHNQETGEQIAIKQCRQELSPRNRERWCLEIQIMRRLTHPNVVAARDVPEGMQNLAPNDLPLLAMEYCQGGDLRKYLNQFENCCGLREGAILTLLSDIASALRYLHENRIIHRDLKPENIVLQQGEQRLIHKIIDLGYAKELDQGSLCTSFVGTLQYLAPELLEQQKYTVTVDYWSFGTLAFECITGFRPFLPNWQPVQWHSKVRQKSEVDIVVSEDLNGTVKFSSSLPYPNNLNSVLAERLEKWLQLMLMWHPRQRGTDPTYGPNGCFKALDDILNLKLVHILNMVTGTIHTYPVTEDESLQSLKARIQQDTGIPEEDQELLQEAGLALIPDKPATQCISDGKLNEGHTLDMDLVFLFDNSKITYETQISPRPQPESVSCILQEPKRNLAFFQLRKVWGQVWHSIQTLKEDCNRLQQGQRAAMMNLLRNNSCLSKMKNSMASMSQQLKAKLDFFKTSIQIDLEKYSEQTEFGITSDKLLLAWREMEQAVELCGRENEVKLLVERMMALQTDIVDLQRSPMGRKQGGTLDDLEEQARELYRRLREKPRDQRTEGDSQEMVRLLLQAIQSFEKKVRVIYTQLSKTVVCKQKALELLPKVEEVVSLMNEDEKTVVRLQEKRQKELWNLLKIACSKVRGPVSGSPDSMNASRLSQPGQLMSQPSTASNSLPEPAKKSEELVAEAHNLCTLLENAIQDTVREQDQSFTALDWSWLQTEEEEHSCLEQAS
# test_summary: radiometric filter-binding kinase assay
# condition_parameters: compound 1.0 µM
Give just the number in %; leave the unit off.

For reference, reported residual activity for CNc1nc(-c2ccc3c(N)n[nH]c3c2)cc(N2C[C@@H](C(=O)NC3CCCCC3)CC[C@H]2C)n1 stands at 118

For reference, reported residual activity for CC(C)(C#N)c1ccc(N2C(=O)OCc3cnc4ccc(-c5cnc6ccccc6c5)cc4c32)cc1 stands at 86

----------
Entries and their residual activity
# target_under_test: IKBKE (human) (UniProt Q14164)
# Sequence (Q14164 whole entry, looked up): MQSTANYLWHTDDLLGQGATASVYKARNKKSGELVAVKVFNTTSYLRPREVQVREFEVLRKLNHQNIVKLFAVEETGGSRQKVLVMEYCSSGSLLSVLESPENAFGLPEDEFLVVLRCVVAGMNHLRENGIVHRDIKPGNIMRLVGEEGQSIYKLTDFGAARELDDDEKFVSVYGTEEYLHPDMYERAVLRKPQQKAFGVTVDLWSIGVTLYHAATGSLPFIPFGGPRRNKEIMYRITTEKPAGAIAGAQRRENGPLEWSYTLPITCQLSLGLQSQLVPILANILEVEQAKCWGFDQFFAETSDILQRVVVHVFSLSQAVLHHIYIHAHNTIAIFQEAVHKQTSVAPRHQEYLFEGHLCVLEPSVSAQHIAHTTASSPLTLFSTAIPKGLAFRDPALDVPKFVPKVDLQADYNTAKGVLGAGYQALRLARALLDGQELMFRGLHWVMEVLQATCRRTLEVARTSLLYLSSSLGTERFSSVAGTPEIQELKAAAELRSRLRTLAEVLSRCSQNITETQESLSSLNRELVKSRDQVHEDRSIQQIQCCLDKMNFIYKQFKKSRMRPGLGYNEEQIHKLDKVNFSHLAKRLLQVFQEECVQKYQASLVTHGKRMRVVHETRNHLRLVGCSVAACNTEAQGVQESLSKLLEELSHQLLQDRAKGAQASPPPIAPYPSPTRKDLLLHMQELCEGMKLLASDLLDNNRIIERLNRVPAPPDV
# test_summary: radiometric filter-binding kinase assay
# condition_parameters: compound 10.0 µM
Give just the number in %; leave the unit off.

- Cc1ccc(=O)n(-c2ccccc2)c1: 99
- CCn1c(-c2nonc2N)nc2cncc(CNC3CCNCC3)c21: 115
- CC1=C(CO)C(=O)O[C@@H]([C@@H](C)[C@H]2CC[C@H]3[C@@H]4C[C@H]5O[C@]56[C@@H](O)C=CC(=O)[C@]6(C)C4CC[C@]23C)C1 (some centres undefined): 61

For reference, reported residual activity for c1ccc2c(-c3cnn4cc(-c5ccc(N6CCNCC6)cc5)cnc34)ccnc2c1 stands at 56

----------
# target_under_test: EPHA4 (human)
# test_summary: radiometric filter-binding kinase assay
# condition_parameters: compound 1.0 µM
Entries and their residual activity
Dear colleague, please send the value followed by its unit.

- NC(=O)c1cc2c(-c3cccc(-c4ccccc4)c3)cnc(N)c2s1: 89%
- O=C(NCCCNc1nc(Nc2cccc(CN3CCOCC3)c2)ncc1C1CC1)C1CCC1: 114%
- CCn1c(-c2nonc2N)nc2cncc(CNC3CCNCC3)c21: 109%
- COc1ccc(N(C(=O)Nc2c(C)cccc2C)c2cc(Nc3ccc(N4CCN(C)CC4)cc3)ncn2)c(OC)c1: 6%
- COc1ccc(-n2ncc3cnc(Nc4cc(OC)c(OC)c(OCCCN5CCN(C)CC5)c4)nc32)cc1: 5%

For reference, reported residual activity for CC1=C(CO)C(=O)O[C@@H]([C@@H](C)[C@H]2CC[C@H]3[C@@H]4C[C@H]5O[C@]56[C@@H](O)C=CC(=O)[C@]6(C)C4CC[C@]23C)C1 (some centres not stated) stands at 98%

For reference, reported residual activity for Cc1cc(NC(=O)c2cccc(NC(=O)/C=C/CN(C)C)c2)ccc1Nc1nccc(-c2cccnc2)n1 stands at 80%

----------
# target_under_test: MINK1 (human)
# test_summary: radiometric filter-binding kinase assay
# condition_parameters: compound 10.0 µM
Entries and their residual activity
Give just the number in %; leave the unit off.

Consider the worked cases shown below.
• c1ccc2c(-c3cnn4cc(-c5ccc(N6CCNCC6)cc5)cnc34)ccnc2c1 = 4
• COc1cc2ncn(-c3cc(OCc4ccccc4S(C)(=O)=O)c(C#N)s3)c2cc1OC = 1
• C=CC(=O)N1CCC[C@@H](n2nc(-c3ccc(Oc4ccccc4)cc3)c3c(N)ncnc32)C1 = 57
• CC(C)(C#N)c1ccc(N2C(=O)OCc3cnc4ccc(-c5cnc6ccccc6c5)cc4c32)cc1 = 55
• Oc1ccc(/C=C/c2cc(O)cc(O)c2)cc1 = 66
• NCC(=O)Nc1ccc(-n2nc(C(F)(F)F)cc2-c2ccc3c(ccc4ccccc43)c2)cc1 = 47
• NC(=O)c1cc2c(-c3cccc(-c4ccccc4)c3)cnc(N)c2s1 = 4
• O=S(=O)(c1ccc(F)c2nonc12)N1CCN(c2ncc(C(F)(F)F)cc2Cl)CC1 = 89
• CCn1c(-c2nonc2N)nc2cncc(CNC3CCNCC3)c21 = 72
• CC(C)C[C@H](NC(=O)CNC(=O)c1cc(Cl)ccc1Cl)B1OC(=O)CC(CC(=O)O)(C(=O)O)O1 (some centres not stated) = 73

The value of residual activity recorded for N#Cc1c(O)c2c(-c3ccc(-c4ccccc4O)cc3)csc2[nH]c1=O when tested on MINK1 (human) reads 65
